experimentalTarget: Ac-VQIINK-NH2 (SEQ ID NO: 23) (N-terminal acetyl (Ac); C-terminal amide (NH2))
assaySummary: cell-based or functional assay
Square brackets hold non-standard residues; d marks the D form. Ends that are not written are not given here.
Please provide measured VQIINK Inhibition IC50 for the entries that follow.
One number for each entry, in µm.

{"columns": ["binder", "quantity", "measurementUnit", "experimentalValue"],
 "data": [
  ["[dL][dK][dV][dR][dW][dW] [lkvrww]", "VQIINK Inhibition IC50", "µm", 6.63],
  ["[dW][dR][dL][dR][dI][dF][dW] [wrlrifw]", "VQIINK Inhibition IC50", "µm", 6.33]
]}

For each entry beneath this line, provide reported VQIINK Inhibition IC50.
1. [dL][dK][dI][dR][dI][dF][dY][dH] [lkirifyh]
2. [dW][dR][dL][dR][dI][dT][dW] [wrlritw]
3. [dF][dK][dL][dK][dL][dW][dW][dF] [fklklwwf]
4. [dW][dR][dL][dR][dI][dH][dW] [wrlrihw]
5. [dW][dW][dL][dK][dL][dR][dW][dW] [wwlklrww]

Data returned:
1. 1.53
2. 2.89
3. 1.15
4. 2.23
5. 3.79
